- Species on record: Rattus norvegicus
- Experimental Protocol: Open TG-GATES - Regimen: Single
- Format: toxicity, organism-based, Sprague-Dawley
- Set-up: regimen Single, gender Male, age 6 weeks
- Assay Conditions: in vivo, po, 0 mg/kg, 3 h, tissue Blood, route gavage, dose level Control
Can you tell me MCV for the items I'm about to list?
Give bare numbers, in fL.

INSERT INTO results (molecule, assay_readout, assay_result) VALUES
  ('CCOC(=O)CCC(=O)O[C@H]1[C@H](O[C@@H]2[C@@H](C)[C@H](O[C@H]3C[C@@](C)(OC)[C@@H](O)[C@H](C)O3)[C@@H](C)C(=O)O[C@H](CC)[C@@](C)(O)[C@H](O)[C@@H](C)C(=O)[C@H](C)C[C@@]2(C)O)O[C@H](C)C[C@@H]1N(C)C [ERYTHROMYCIN ETHYLSUCCINATE]', 'MCV', 63.2),
  ('NC(N)=Nc1nc(CSCCC(N)=NS(N)(=O)=O)cs1 [FAMOTIDINE]', 'MCV', 62.6),
  ('CN(C)CCCN1c2ccccc2CCc2ccccc21 [IMIPRAMINE]', 'MCV', 64.7),
  ('CN1C(=O)CN=C(c2ccccc2)c2cc(Cl)ccc21 [DIAZEPAM]', 'MCV', 66.9),
  ('CCOc1ccc(NC(=O)CC(C)O)cc1 (stereo unspecified) [BUCETIN]', 'MCV', 64.5);

Okay, next one:
Incoming: What measured MCV goes with COc1ccc2[nH]c([S+]([O-])Cc3ncc(C)c(OC)c3C)nc2c1 (stereo unspecified) [OMEPRAZOLE] ?
Outgoing: 63.1

====

Can you tell me IP for the items I'm about to list?
- Organism: Rattus norvegicus
- Experimental Protocol: Open TG-GATES - Regimen: Single
- Assay type: toxicity, organism-based, Sprague-Dawley
- Design: regimen Single, gender Male, age 6 weeks
- Assay Conditions: in vivo, po, 100 mg/kg, 9 h, tissue Plasma, route gavage, dose level High
Please state the number and follow it with the unit.

Example entries and their recorded answers appear below.
INSERT INTO assay_data (smiles_str, assay_result) VALUES
  ('CC1=C(/C=C/C(C)=C/C=C/C(C)=C/CO)C(C)(C)CCC1', '10.7 mg/dL'),
  ('CN(C)CCCN1c2ccccc2CCc2ccccc21', '10.2 mg/dL');

Consider the following items and state reported IP for each.
1. CN(C)CCCN1c2ccccc2CCc2ccc(Cl)cc21
2. CN(C)CCN(Cc1cccs1)c1ccccn1

Outgoing:
1: 9.8 mg/dL; 2: 9.7 mg/dL

====

Can you tell me Neu for the items I'm about to list?
- Organism: Rattus norvegicus
- Experimental Protocol: Open TG-GATES - Regimen: Single
- Type: toxicity, organism-based, Sprague-Dawley
- Design: regimen Single, gender Male, age 6 weeks
- Assay Conditions: in vivo, po, 300 mg/kg, 3 h, tissue Blood, route gavage, dose level Middle
One number for each entry, in %.

Example entries and their recorded answers appear below.
INSERT INTO assay_data (compound, assay_readout, assay_result) VALUES
  ('CCOC(=O)CCC(=O)O[C@H]1[C@H](O[C@@H]2[C@@H](C)[C@H](O[C@H]3C[C@@](C)(OC)[C@@H](O)[C@H](C)O3)[C@@H](C)C(=O)O[C@H](CC)[C@@](C)(O)[C@H](O)[C@@H](C)C(=O)[C@H](C)C[C@@]2(C)O)O[C@H](C)C[C@@H]1N(C)C [ERYTHROMYCIN ETHYLSUCCINATE]', 'Neu', 19.8),
  ('COc1ccc2[nH]c([S+]([O-])Cc3ncc(C)c(OC)c3C)nc2c1 (centres undefined)', 'Neu', 22.2),
  ('COC1=CC(=O)C[C@@H](C)[C@]12Oc1c(Cl)c(OC)cc(OC)c1C2=O', 'Neu', 23.2);

Okay, next one:
Incoming: What measured Neu goes with "NC(N)=Nc1nc(CSCCC(N)=NS(N)(=O)=O)cs1" ?
Outgoing: 17.8

====

- Organism: Rattus norvegicus
- Experimental Protocol: Open TG-GATES - Regimen: Daily Repeat
- Type: toxicity, organism-based, Sprague-Dawley
- Set-up: regimen Daily Repeat, gender Male, age 6 weeks
- Assay Conditions: in vivo, po, 100 mg/kg, […], tissue Blood, route gavage, dose level Low, time 7 day
# strict inequality: WBC < 100 x10_2/uL yields TRUE, everything else yields FALSE

These solved cases illustrate the format of a correct answer.
INSERT INTO measurements (compound, classification) VALUES
  ('CCOC(=O)CCC(=O)O[C@H]1[C@H](O[C@@H]2[C@@H](C)[C@H](O[C@H]3C[C@@](C)(OC)[C@@H](O)[C@H](C)O3)[C@@H](C)C(=O)O[C@H](CC)[C@@](C)(O)[C@H](O)[C@@H](C)C(=O)[C@H](C)C[C@@]2(C)O)O[C@H](C)C[C@@H]1N(C)C [ERYTHROMYCIN ETHYLSUCCINATE]', 'TRUE'),
  ('CCOc1ccc(NC(=O)CC(C)O)cc1 (stereo not given) [BUCETIN]', 'FALSE'),
  ('COC1=CC(=O)C[C@@H](C)[C@]12Oc1c(Cl)c(OC)cc(OC)c1C2=O [GRISEOFULVIN]', 'FALSE'),
  ('NC(N)=Nc1nc(CSCCC(N)=NS(N)(=O)=O)cs1 [FAMOTIDINE]', 'TRUE');

Incoming: I'd appreciate it if you could check whether COc1ccc2[nH]c([S+]([O-])Cc3ncc(C)c(OC)c3C)nc2c1 (stereo not given) [OMEPRAZOLE] has WBC smaller than 100 x10_2/uL.
Outgoing: FALSE

====

Can you tell me TBIL for the items I'm about to list?
- Species: Rattus norvegicus
- Experimental Protocol: Open TG-GATES - Regimen: Single
- Format: toxicity, organism-based, Sprague-Dawley
- Design: regimen Single, gender Male, age 6 weeks
- Assay Conditions: in vivo, po, 30 mg/kg, 24 h, tissue Plasma, route gavage, dose level Middle

Example entries and their recorded answers appear below.
INSERT INTO assay_data (smiles_str, assay_result) VALUES
  ('CN(C)CCCN1c2ccccc2CCc2ccc(Cl)cc21', '0.062 mg/dL'),
  ('CC1=C(/C=C/C(C)=C/C=C/C(C)=C/CO)C(C)(C)CCC1', '0.006 mg/dL'),
  ('CN(C)CCCN1c2ccccc2CCc2ccccc21', '0.06 mg/dL');

Okay, next one:
Incoming: What measured TBIL goes with "CN(C)CCN(Cc1cccs1)c1ccccn1" ?
Outgoing: 0.008 mg/dL

====

- Organism: Rattus norvegicus
- Experimental Protocol: Open TG-GATES - Regimen: Single
- Type: toxicity, organism-based, Sprague-Dawley
- Set-up: regimen Single, gender Male, age 6 weeks
- Assay Conditions: in vivo, po, 0 mg/kg, 24 h, tissue Plasma, route gavage, dose level Control
Can you tell me ALP for the items I'm about to list?
Numbers only, in IU/L.

INSERT INTO results (compound, assay_result) VALUES
  ('NC(N)=Nc1nc(CSCCC(N)=NS(N)(=O)=O)cs1', 1002.2),
  ('CCCNC(=O)NS(=O)(=O)c1ccc(Cl)cc1 [CHLORPROPAMIDE]', 1569),
  ('CN(C)CCCN1c2ccccc2CCc2ccccc21', 1689.2),
  ('CN(C)CCCN1c2ccccc2CCc2ccc(Cl)cc21', 1743.2),
  ('CN1C(=O)CN=C(c2ccccc2)c2cc(Cl)ccc21', 817.8),
  ('COc1cc2c(c(OC)c1OC)-c1ccc(OC)c(=O)cc1[C@@H](NC(C)=O)CC2', 858);

Consider the following items and state reported ALP for each.
1. CCOc1ccc(NC(=O)CC(C)O)cc1 (stereo not given)
2. CCOC(=O)CCC(=O)O[C@H]1[C@H](O[C@@H]2[C@@H](C)[C@H](O[C@H]3C[C@@](C)(OC)[C@@H](O)[C@H](C)O3)[C@@H](C)C(=O)O[C@H](CC)[C@@](C)(O)[C@H](O)[C@@H](C)C(=O)[C@H](C)C[C@@]2(C)O)O[C@H](C)C[C@@H]1N(C)C [ERYTHROMYCIN ETHYLSUCCINATE]
3. COc1ccc2[nH]c([S+]([O-])Cc3ncc(C)c(OC)c3C)nc2c1 (stereo not given)
4. CN(C)CCN(Cc1cccs1)c1ccccn1
5. Cc1ccc(C)c(OCCCC(C)(C)C(=O)O)c1
6. CC1=C(/C=C/C(C)=C/C=C/C(C)=C/CO)C(C)(C)CCC1
7. NNC(=O)c1ccncc1

Outgoing:
1. 1587.4
2. 1574.2
3. 979.4
4. 1802.6
5. 1725.4
6. 1692.4
7. 930.6

Consider the following items and state reported ALP for each.
1. COC1=CC(=O)C[C@@H](C)[C@]12Oc1c(Cl)c(OC)cc(OC)c1C2=O
2. O=C(CCCN1CCC(O)(c2ccc(Cl)cc2)CC1)c1ccc(F)cc1

Outgoing:
884.4
1093.2
